Measured values drawn from BindingDB's records for doi:10.1016/0014-5793(93)80368-5 for this set.

Measured pKi, listed per entry.
Molecular target: 5-hydroxytryptamine receptor 5B (Rattus norvegicus)
Sequence (P35365 whole entry): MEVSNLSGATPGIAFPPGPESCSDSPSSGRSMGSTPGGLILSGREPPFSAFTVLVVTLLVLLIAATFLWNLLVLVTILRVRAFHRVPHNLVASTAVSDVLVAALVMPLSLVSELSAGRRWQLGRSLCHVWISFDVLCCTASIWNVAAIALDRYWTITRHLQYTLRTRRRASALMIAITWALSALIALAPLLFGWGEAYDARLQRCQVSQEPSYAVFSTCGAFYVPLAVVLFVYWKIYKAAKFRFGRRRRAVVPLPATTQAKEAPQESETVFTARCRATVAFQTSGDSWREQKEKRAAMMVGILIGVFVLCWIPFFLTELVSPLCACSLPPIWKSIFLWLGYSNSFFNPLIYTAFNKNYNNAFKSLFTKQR
Keep it numeric: pKi is minus log10 of the concentration in mol/L.

Study these solved cases before continuing.
{"compound": "CCCN(CCC)C1CCc2cccc(O)c2C1 (stereo not drawn)", "pKi": 7.34}
{"compound": "CC[C@@H](CO)NC(=O)[C@@H]1C=C2c3cccc4c3c(cn4C)C[C@H]2N(C)C1", "pKi": 7.39}
{"compound": "CC(C)NCC(O)COc1cccc2[nH]ccc12 (stereo not drawn)", "pKi": 6.00}
{"compound": "CN1CCC(=C2c3ccccc3C=Cc3ccccc32)CC1", "pKi": 6.93}
{"compound": "CCN(CC)C(=O)[C@@H]1C=C2c3cccc4[nH]cc(c34)C[C@H]2N(C)C1", "pKi": 8.49}
{"compound": "O=C(CCCN1CCC2(CC1)C(=O)NCN2c1ccccc1)c1ccc(F)cc1", "pKi": 6.00}
{"compound": "NCCc1c[nH]c2ccc(OCC(=O)NCC(=O)N[C@@H](Cc3ccc(O)cc3)C(N)=O)cc12", "pKi": 6.24}

// moving on: another record for pKi
Form field: pKi recorded for CN1CC(C(=O)N[C@]2(C)O[C@@]3(O)C4CCCN4C(=O)[C@H](Cc4ccccc4)N3C2=O)CC2c3cccc4[nH]cc(c34)CC21 (stereo partly drawn) with 5-hydroxytryptamine receptor 5B (Rattus norvegicus) (enter value)
7.51
